# System: S. aureus ATCC 33591 (methicillin-resistant)
# measurement notes: broth microdilution MIC assay, S. aureus ATCC 33591
# Format: cell-based
# condition label: Staphylococcus aureus, ATCC 33591 / MRSA; Table 3; S. aureus 33591 (MRSA); read-out: S. aureus 33591 (MRSA) MIC
observation type: MIC

molecule	MIC
C[C@@H](O)[C@H]1C(=O)N2C(C(=O)O)=C(S[C@@H]3CCN(Cc4ccncc4)C3)[C@H](C)[C@H]12	8 to 32 µg/mL

Task: Request the reported MIC associated with CNCCCCN1CC[C@@H](SC2=C(C(=O)O)N3C(=O)[C@H]([C@@H](C)O)[C@H]3[C@H]2C)C1
Result: 8 to 32 µg/mL

Task: Request the reported MIC associated with C[C@@H](O)[C@H]1C(=O)N2C(C(=O)O)=C(S[C@@H]3CCN(C[C@H]4CC[C@H](CN)CC4)C3)[C@H](C)[C@H]12
Result: 8 to 32 µg/mL

Task: Request the reported MIC associated with C[C@@H](O)[C@H]1C(=O)N2C(C(=O)O)=C(S[C@@H]3CCN([C@H]4CC[C@@H](N)CC4)C3)[C@H](C)[C@H]12
Result: 8 to 32 µg/mL

Task: Request the reported MIC associated with C[C@@H](O)[C@H]1C(=O)N2C(C(=O)O)=C(S[C@@H]3CCN(CC4CCN(C(=N)N)CC4)C3)[C@H](C)[C@H]12
Result: 1 to 4 µg/mL

Task: Request the reported MIC associated with C[C@@H](O)[C@H]1C(=O)N2C(C(=O)O)=C(S[C@@H]3CCN(C4CCC(NCCCB(O)O)CC4)C3)[C@H](C)[C@H]12 (stereo partly shown)
Result: 8 to 32 µg/mL

Task: Request the reported MIC associated with C[C@@H](O)[C@H]1C(=O)N2C(C(=O)[O-])=C(S[C@@H]3CC[N+](C)(CC4CCNCC4)C3)[C@H](C)[C@H]12 (stereo partly shown)
Result: 8 to 32 µg/mL

Task: Request the reported MIC associated with C[C@@H](O)[C@H]1C(=O)N2C(C(=O)O)=C(S[C@@H]3CCN(C4CCNCC4)C3)[C@H](C)[C@H]12
Result: 8 to 32 µg/mL

Task: Request the reported MIC associated with C[C@@H](O)[C@H]1C(=O)N2C(C(=O)O)=C(S[C@@H]3CCN(C4CCC(N)(CN)CC4)C3)[C@H](C)[C@H]12 (stereo partly shown)
Result: 8 to 32 µg/mL

Task: Request the reported MIC associated with C[C@@H](O)[C@H]1C(=O)N2C(C(=O)O)=C(S[C@@H]3CCN(Cc4ccc(CN)c(CN)c4)C3)[C@H](C)[C@H]12
Result: 1 to 4 µg/mL

Task: Request the reported MIC associated with CN[C@H]1CC[C@@H](CN2CC[C@@H](SC3=C(C(=O)O)N4C(=O)[C@H]([C@@H](C)O)[C@H]4[C@H]3C)C2)CC1
Result: 8 to 32 µg/mL

Task: Request the reported MIC associated with C[C@@H](O)[C@H]1C(=O)N2C(C(=O)O)=C(S[C@H]3CCN(C4CCNCC4)C3)[C@H](C)[C@H]12
Result: 8 to 32 µg/mL

Task: Request the reported MIC associated with C[C@@H](O)[C@H]1C(=O)N2C(C(=O)O)=C(S[C@@H]3CCN(Cc4ccc(C(N)CN)cc4)C3)[C@H](C)[C@H]12 (stereo partly shown)
Result: 1 to 4 µg/mL
